System: BEN
Experiment: relative viability (nuclei count vs DMSO), 5 days (fraction); higher = more cells survive
Conditions: first compound 0.01581 µM
QUANTITY_KIND: relative viability

>>> measurement("CC1(C)CCC(c2ccc(Cl)cc2)=C(CN2CCN(c3ccc(C(=O)NS(=O)(=O)c4ccc(N[C@H](CCN5CCOCC5)CSc5ccccc5)c(S(=O)(=O)C(F)(F)F)c4)cc3)CC2)C1 [Navitoclax] + O=C(CCCCCCC(=O)Nc1ccccc1)NO [Vorinostat] (partner 1 µM)")
0.658

For the next question, use this compound.
# input Which relative viability reading was recorded for the compound CC1(C)CCC(c2ccc(Cl)cc2)=C(CN2CCN(c3ccc(C(=O)NS(=O)(=O)c4ccc(N[C@H](CCN5CCOCC5)CSc5ccccc5)c(S(=O)(=O)C(F)(F)F)c4)cc3)CC2)C1 [Navitoclax] + Cc1nc(Nc2ncc(C(=O)Nc3c(C)cccc3Cl)s2)cc(N2CCN(CCO)CC2)n1 [Dasatinib] (partner 0.075 µM) ?
# output 0.312

====

Test system: EMC-BAC-2
Test: relative viability (nuclei count vs DMSO), 5 days (fraction); higher = more cells survive
Details: first compound 2.53 µM
So basically, if relative viability comes in under 0.4 it's true, and if it's 0.4 or more it's false.

# input relative viability strictly < 0.4 for this molecule? C=C1C(=O)O[C@@H](CCCCCCCC)[C@@H]1C(=O)O [C-75] + Nc1nc2[nH]cc(CCc3ccc(C(=O)N[C@@H](CCC(=O)O)C(=O)O)cc3)c2c(=O)[nH]1 [Pemetrexed] (partner 0.2 µM)
# output true

====

Test system: NCI-H1793
Assay: relative viability (nuclei count vs DMSO), 5 days (fraction); higher = more cells survive
Conditions: first compound 0.8 µM
I'd appreciate it if you marked entries criterion met when relative viability is lower than 0.8 and criterion not met when it is not.

>>> label_class("C=C1C(=O)O[C@@H](CCCCCCCC)[C@@H]1C(=O)O [C-75] + N=C(N)NC(=N)NCCc1ccccc1 [Phenformin] (partner 250 µM)")
"criterion met"
>>> label_class("Oc1nc(-c2ccc(C(F)(F)F)cc2)nc2c1CSCC2 [XAV939] + Nc1nc2[nH]cc(CCc3ccc(C(=O)N[C@@H](CCC(=O)O)C(=O)O)cc3)c2c(=O)[nH]1 [Pemetrexed] (partner 0.2 µM)")
"criterion not met"
>>> label_class("Oc1nc(-c2ccc(C(F)(F)F)cc2)nc2c1CSCC2 [XAV939] + O=C(CCCCCCC(=O)Nc1ccccc1)NO [Vorinostat] (partner 1 µM)")
"criterion not met"
>>> label_class("Oc1nc(-c2ccc(C(F)(F)F)cc2)nc2c1CSCC2 [XAV939] + NC(=O)Nc1cc(-c2cccc(F)c2)sc1C(=O)N[C@H]1CCCNC1 [AZD7762] (partner 0.2 µM)")
"criterion met"
>>> label_class("Oc1nc(-c2ccc(C(F)(F)F)cc2)nc2c1CSCC2 [XAV939] + C[C@]1(O)C[C@@H](c2nc(-c3ccc4ccc(-c5ccccc5)nc4c3)c3c(N)nccn32)C1 [Linsitinib] (partner 1 µM)")
"criterion met"

# input Consider the compound C=C1C(=O)O[C@@H](CCCCCCCC)[C@@H]1C(=O)O [C-75] + COc1cccc2cc(-c3nc([C@H]4CC[C@H](C(=O)O)CC4)n4ncnc(N)c34)[nH]c12 [OSI-027] (partner 0.5 µM) . Is its relative viability strictly less than 0.8?
# output criterion met

# input Please give the result for C=C1C(=O)O[C@@H](CCCCCCCC)[C@@H]1C(=O)O [C-75] + COc1cc2c(Oc3ccc(NC(=O)C4(C(=O)Nc5ccc(F)cc5)CC4)cc3F)ccnc2cc1OCCCN1CCOCC1 [Foretinib] (partner 0.25 µM) too.
# output criterion met

====

Measured relative viability, listed per entry for reference.
System: NCI-H1755
Assay: relative viability (nuclei count vs DMSO), 5 days (fraction); higher = more cells survive
Settings: first compound 0.03162 µM
# output: bare number, no unit

>>> measurement("NC(=O)Nc1cc(-c2cccc(F)c2)sc1C(=O)N[C@H]1CCCNC1 [AZD7762] + CC1(C)CCC(c2ccc(Cl)cc2)=C(CN2CCN(c3ccc(C(=O)NS(=O)(=O)c4ccc(N[C@H](CCN5CCOCC5)CSc5ccccc5)c(S(=O)(=O)C(F)(F)F)c4)cc3)CC2)C1 [Navitoclax] (partner 0.5 µM)")
1.01

Query molecule follows.
# input Requested read-out: relative viability. Entry: NC(=O)Nc1cc(-c2cccc(F)c2)sc1C(=O)N[C@H]1CCCNC1 [AZD7762] + CCNC(=O)c1noc(-c2cc(C(C)C)c(O)cc2O)c1-c1ccc(CN2CCOCC2)cc1 [Luminespib] (partner 0.01 µM)
# output 0.344

====

System: NCI-H838
Experiment: relative viability (nuclei count vs DMSO), 5 days (fraction); higher = more cells survive
Conditions: first compound 0.005 µM
Below, each entry is listed alongside its reported relative viability.
Reply with the value as a number alone.

>>> measurement("CC1(C)CCC(c2ccc(Cl)cc2)=C(CN2CCN(c3ccc(C(=O)NS(=O)(=O)c4ccc(N[C@H](CCN5CCOCC5)CSc5ccccc5)c(S(=O)(=O)C(F)(F)F)c4)cc3)CC2)C1 [Navitoclax] + N=C(N)NC(=N)NCCc1ccccc1 [Phenformin] (partner 250 µM)")
0.529

// below: relative viability requested for another compound
# input Provide value of relative viability for this record tested with NCI-H838: CC1(C)CCC(c2ccc(Cl)cc2)=C(CN2CCN(c3ccc(C(=O)NS(=O)(=O)c4ccc(N[C@H](CCN5CCOCC5)CSc5ccccc5)c(S(=O)(=O)C(F)(F)F)c4)cc3)CC2)C1 [Navitoclax] + CS(=O)(=O)N1CCN(Cc2cc3nc(-c4cccc5[nH]ncc45)nc(N4CCOCC4)c3s2)CC1 [Pictilisib] (partner 1 µM)
# output 0.435

====

The entries below are paired with their reported relative viability.
Test system: LCLC-103H
Assay: relative viability (nuclei count vs DMSO), 5 days (fraction); higher = more cells survive
Conditions: first compound 0.04 µM
// print number alone

>>> measurement("O=C(O)c1ccc(-c2c[nH]c3ncc(-c4ccccc4)cc23)cc1C1CCCC1 + CC(=O)Nc1cccc(-n2c(=O)n(C3CC3)c(=O)c3c(Nc4ccc(I)cc4F)n(C)c(=O)c(C)c32)c1 [Trametinib] (partner 0.02 µM)")
0.65
>>> measurement("O=C(O)c1ccc(-c2c[nH]c3ncc(-c4ccccc4)cc23)cc1C1CCCC1 + CC(C)C[C@H](NC(=O)[C@H](Cc1ccccc1)NC(=O)c1cnccn1)B(O)O [Bortezomib] (partner 0.002 µM)")
1.11

# input Which relative viability value is on record for O=C(O)c1ccc(-c2c[nH]c3ncc(-c4ccccc4)cc23)cc1C1CCCC1 + O=C(CCCCCCC(=O)Nc1ccccc1)NO [Vorinostat] (partner 1 µM) ?
# output 0.777

# input Proceed to O=C(O)c1ccc(-c2c[nH]c3ncc(-c4ccccc4)cc23)cc1C1CCCC1 + Cc1nc(Nc2ncc(C(=O)Nc3c(C)cccc3Cl)s2)cc(N2CCN(CCO)CC2)n1 [Dasatinib] (partner 0.075 µM)
# output 0.481

# input And what about the compound O=C(O)c1ccc(-c2c[nH]c3ncc(-c4ccccc4)cc23)cc1C1CCCC1 + CC(=O)c1c(C)c2cnc(Nc3ccc(N4CCNCC4)cn3)nc2n(C2CCCC2)c1=O [Palbociclib] (partner 0.5 µM) ?
# output 0.412

====

Tested on: NCI-H2405
Assay: relative viability (nuclei count vs DMSO), 5 days (fraction); higher = more cells survive
Conditions: first compound 0.04 µM
Exam item: assign 1 to entries whose relative viability is below 0.9 and -1 to entries at or above 0.9. Note that a value of exactly 0.9 receives -1.

>>> label_class("O=C(O)c1ccc(-c2c[nH]c3ncc(-c4ccccc4)cc23)cc1C1CCCC1 + COc1cc2c(Oc3ccc(NC(=O)C4(C(=O)Nc5ccc(F)cc5)CC4)cc3F)ccnc2cc1OCCCN1CCOCC1 [Foretinib] (partner 0.25 µM)")
-1

# input Dear reviewer, please state whether O=C(O)c1ccc(-c2c[nH]c3ncc(-c4ccccc4)cc23)cc1C1CCCC1 + N=C(N)NC(=N)NCCc1ccccc1 [Phenformin] (partner 250 µM) has relative viability strictly beneath 0.9.
# output 1

# input Also check O=C(O)c1ccc(-c2c[nH]c3ncc(-c4ccccc4)cc23)cc1C1CCCC1 + Cc1nc(Nc2ncc(C(=O)Nc3c(C)cccc3Cl)s2)cc(N2CCN(CCO)CC2)n1 [Dasatinib] (partner 0.075 µM)
# output 1

# input Note, next up: O=C(O)c1ccc(-c2c[nH]c3ncc(-c4ccccc4)cc23)cc1C1CCCC1 + C[C@@H](Oc1cc(-c2cnn(C3CCNCC3)c2)cnc1N)c1c(Cl)ccc(F)c1Cl [Crizotinib] (partner 1 µM)
# output 1

====

Tested on: A549
Assay: relative viability (nuclei count vs DMSO), 5 days (fraction); higher = more cells survive
Conditions: first compound 2.53 µM
Threshold 0.3. relative viability below it: MET. relative viability at it or above: NOT MET.

>>> label_class("Oc1nc(-c2ccc(C(F)(F)F)cc2)nc2c1CSCC2 [XAV939] + CC1(C)CCC(c2ccc(Cl)cc2)=C(CN2CCN(c3ccc(C(=O)NS(=O)(=O)c4ccc(N[C@H](CCN5CCOCC5)CSc5ccccc5)c(S(=O)(=O)C(F)(F)F)c4)cc3)CC2)C1 [Navitoclax] (partner 0.5 µM)")
"NOT MET"
>>> label_class("Oc1nc(-c2ccc(C(F)(F)F)cc2)nc2c1CSCC2 [XAV939] + N=C(N)NC(=N)NCCc1ccccc1 [Phenformin] (partner 250 µM)")
"MET"
>>> label_class("C=C1C(=O)O[C@@H](CCCCCCCC)[C@@H]1C(=O)O [C-75] + CS(=O)(=O)N1CCN(Cc2cc3nc(-c4cccc5[nH]ncc45)nc(N4CCOCC4)c3s2)CC1 [Pictilisib] (partner 1 µM)")
"NOT MET"

Field: next molecule
# input A record lists C=C1C(=O)O[C@@H](CCCCCCCC)[C@@H]1C(=O)O [C-75] + O=C(c1cc(Cc2n[nH]c(=O)c3ccccc23)ccc1F)N1CCN(C(=O)C2CC2)CC1 [Olaparib] (partner 8 µM) . Is its relative viability below 0.3?
# output MET
